# Tested on: VDR:RXRa (NR concentration 270 nM, RXRa partner concentration 90 nM)
# Method notes: PBM binding z-score (relative to random genomic background probes); higher = stronger binding; sequences stand for … in GC…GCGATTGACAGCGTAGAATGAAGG
Rule: PBM binding z-score of 1 or more gives fulfilled; anything lower gives not fulfilled.

Ask | Quick check, PBM binding z-score >= 1? TCATATAGGTAAATGCCAGGTGAAAGTCCGATCT
Reply | fulfilled

Ask | Determine whether measured PBM binding z-score meets or exceeds 1 for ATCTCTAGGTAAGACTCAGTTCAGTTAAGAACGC
Reply | fulfilled

Ask | Determine whether this sequence has PBM binding z-score no lower than 1: ACTAGCAGGCCAAGGATCACTCAAGATTAGTCCG
Reply | not fulfilled

Ask | Is the recorded value of PBM binding z-score equal to or greater than 1 for this sequence? CCAGGCAGGTGAAAGGTAACTCAGTCTGGTACGC
Reply | not fulfilled

Ask | Please check the record GCATATGGGTAATACAAGGTGAAAGTCCGATTGT and state if its PBM binding z-score is at or above 1.
Reply | not fulfilled

Ask | State whether the measured PBM binding z-score reaches 1, counting equality as reaching it, for CCTAGTTAGTCAAGGTCACACACGCTATAGGTAC
Reply | fulfilled

Attribution: the supplement of paper PMC6555819
